Data origin, for the record: PubChem BioAssay AID1918994

System: 292921-168-R-J2-PDC complex spheroid growth;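 also: spheroids exposed to compounds for seven days after three days of growth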
Experiment: Anticancer human tumor 292921-168-R-J2-PDC patient-derived pancreatic carcinoma cell line growth inhibition [AhR]
Conditions: curve of first compound; second compound 1 µM
outcome.measure: IC50

• CC(C)CC(NC(=O)C(Cc1ccccc1)NC(=O)c1cnccn1)B(O)O (stereo unspecified) + CC(CO)NC(=O)c1cc(-c2ccc(Cl)cc2)nn(-c2cnn(C)c2)c1=O = 0.00601 µM
• COc1cccc2c1C(=O)c1c(O)c3c(c(O)c1C2=O)CC(O)(C(=O)CO)CC3OC1CC(N)C(O)C(C)O1 (stereo unspecified) + Cc1cncc(-c2nc(NCCc3c[nH]c4ccccc34)c3ncn(C(C)C)c3n2)c1 = < 0.0316 µM
• Nc1ncn(C2CC(O)C(CO)S2)c(=O)n1 (stereo unspecified) + CC(CO)NC(=O)c1cc(-c2ccc(Cl)cc2)nn(-c2cnn(C)c2)c1=O = > 0.3 µM
• COc1cc(Nc2ncc3c(n2)-c2ccc(Cl)cc2C(c2c(F)cccc2OC)=NC3)ccc1C(=O)O + Cc1ccccc1N=Nc1ccc(NC(=O)c2ccnn2C)c(C)c1 = < 0.0316 µM
• CCc1c2c(nc3ccc(O)cc13)-c1cc3c(c(=O)n1C2)COC(=O)[C@]3(O)CC + CC(CO)NC(=O)c1cc(-c2ccc(Cl)cc2)nn(-c2cnn(C)c2)c1=O = 0.00102 µM
• COc1cccc2c1C(=O)c1c(O)c3c(c(O)c1C2=O)CC(O)(C(=O)CO)CC3OC1CC(N)C(O)C(C)O1 (stereo unspecified) + CC(CO)NC(=O)c1cc(-c2ccc(Cl)cc2)nn(-c2cnn(C)c2)c1=O = < 0.0316 µM
